System: 1N4R p-tau
Construct: made in house; host or cells: E. coli (PIMAX system)
test.protocol: p-tau aggregation modulator screen of 1280-compound library (ThS fluorescence net change over 16 h);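 further: 30 µM compound with 6 µM p-tau over 16 h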
Format: biochemical
condition.label: library screen, ThS fluorescence net change over 16 h with p-tau
Where a name gives a salt, the structure may show the parent alone.
Measured ThS net change by item

molecule | tested.on | ThS net change
COc1ccc(CCN2CCC(Nc3nc4ccccc4n3Cc3ccc(F)cc3)CC2)cc1 | 1N4R p-tau | 265
CO[C@H]1/C=C/O[C@@]2(C)Oc3c(C)c(O)c4c(O)c(c(/C=N/N5CCN(C6CCCC6)CC5)c(O)c4c3C2=O)NC(=O)/C(C)=C\C=C\[C@H](C)[C@H](O)[C@@H](C)[C@@H](O)[C@@H](C)[C@H](OC(C)=O)[C@@H]1C | 1N4R p-tau | 86
O=C1c2cccc(O)c2C(=O)c2c(O)cccc21 [1,8-Dihydroxyanthraquinone] | 1N4R p-tau | 25
CCCNCC(O)COc1ccccc1C(=O)CCc1ccccc1 (centres unmarked) [Propafenone hydrochloride] | 1N4R p-tau | 317
CO[C@H]1/C=C/O[C@@]2(C)Oc3c(C)c(O)c4c(O)c(c(/C=N/N5CCN(C)CC5)c(O)c4c3C2=O)NC(=O)/C(C)=C\C=C\[C@H](C)[C@H](O)[C@@H](C)[C@@H](O)[C@@H](C)[C@H](OC(C)=O)[C@@H]1C | 1N4R p-tau | 158
C[C@]12C=CC(=O)C=C1CC[C@H]1[C@@H]3C[C@@H](O)[C@](O)(C(=O)CO)[C@@]3(C)C[C@H](O)[C@@]12F | 1N4R p-tau | 259
CCOC(=O)c1ccc(OC(=O)CCCCCNC(=N)N)cc1.CS(=O)(=O)O [Gabexate mesilate] | 1N4R p-tau | 305
CCN(CC)C(=O)/C(C#N)=C/c1cc(O)c(O)c([N+](=O)[O-])c1 | 1N4R p-tau | 199
